Target Or Test System: hemagglutinin (HA) of live influenza A/Solomon Islands/3/06 (H1N1) virus (influenza A virus A/Solomon …)
Test Summary: cell-based or functional assay
Collected % Neutralization values appear next to each entry.
Kindly provide the numeric value in % only, without the unit symbol.

TCN-543 (5081_G23) (antibody, V domains shown) VH: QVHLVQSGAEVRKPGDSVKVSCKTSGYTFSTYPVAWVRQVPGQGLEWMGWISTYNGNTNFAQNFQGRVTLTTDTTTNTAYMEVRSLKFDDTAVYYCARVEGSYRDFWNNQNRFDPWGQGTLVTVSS VL: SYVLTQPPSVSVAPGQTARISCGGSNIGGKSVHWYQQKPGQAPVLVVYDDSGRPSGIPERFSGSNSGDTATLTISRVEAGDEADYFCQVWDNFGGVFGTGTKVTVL = 98
TCN-551 (5243_D01) (antibody, V domains shown) VH: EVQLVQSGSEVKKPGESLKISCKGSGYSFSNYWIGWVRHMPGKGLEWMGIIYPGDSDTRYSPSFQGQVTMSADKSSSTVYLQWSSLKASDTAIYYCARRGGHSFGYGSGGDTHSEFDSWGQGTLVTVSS VL: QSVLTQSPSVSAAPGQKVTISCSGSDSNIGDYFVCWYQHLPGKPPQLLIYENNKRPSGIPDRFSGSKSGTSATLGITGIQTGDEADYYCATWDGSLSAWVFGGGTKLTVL = 99

# context switch: different binder, same % Neutralization
Entry TCN-537 (3194_D21) (antibody, V domains shown) VH: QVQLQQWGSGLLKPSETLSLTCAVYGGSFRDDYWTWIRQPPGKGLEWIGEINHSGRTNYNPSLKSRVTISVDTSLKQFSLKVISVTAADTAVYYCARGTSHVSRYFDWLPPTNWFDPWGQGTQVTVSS VL: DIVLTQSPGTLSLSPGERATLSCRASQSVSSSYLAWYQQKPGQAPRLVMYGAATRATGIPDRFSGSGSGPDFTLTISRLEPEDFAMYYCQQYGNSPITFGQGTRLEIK : reported % Neutralization = ?
0
